Values from ChEMBL document CHEMBL1201861

Catalogue of pIC50 values
# System: ASPC1;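 also: growth inhibition of AsPC-1 cells, read out with a cell viability assay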
# PROTOCOL: cells
# Assay type: functional, cell-based
# MEASUREMENT_CONTEXT: Homo sapiens
# Description: SANGER: Inhibition of human AsPC-1 cell growth in a cell viability assay.
pIC50: −log10 of the molar value.

Sample records with pIC50:
COMPOUND	pIC50
NC1(c2ccc(-c3nc4ccn5c(=O)[nH]nc5c4cc3-c3ccccc3)cc2)CCC1 [MK-2206]	6.66
CC1(C)CCC(c2ccc(Cl)cc2)=C(CN2CCN(c3ccc(C(=O)NS(=O)(=O)c4ccc(N[C@H](CCN5CCOCC5)CSc5ccccc5)c(S(=O)(=O)C(F)(F)F)c4)cc3)CC2)C1 [NAVITOCLAX]	< 5.70
CC1=C(/C=C/C(C)=C/C=C/C(C)=C/C(=O)O)C(C)(C)CCC1 [TRETINOIN]	< 5.00
OC[C@H](Cc1ccccc1)Nc1nc(Oc2ccc3c(c2)CCC3)nc2c1ncn2Cc1ccc(-c2ccccc2)cc1	< 4.99
O=S(=O)(O)c1ccc2cc(/N=N/c3cc(S(=O)(=O)O)c4cccnc4c3O)ccc2c1	< 4.80

Query string: Query: pIC50; subject: CN(C)CCOc1ccc(-c2nc(-c3ccncc3)c(-c3ccc4c(c3)CC/C4=N\O)[nH]2)cc1 [SB590885]
Result string: < 5.30
